A collection of compounds and their measured AC50
# Test system: HL-60
# assay_details: Apoptotic activity in HL60 cells after 24 hrs
# Format: functional, cell-based
# run_parameters: Homo sapiens, HL-60, 24 h

Here's what some known entries look like.
COc1ccc(-c2cc(=O)c3c(OC)c(OC)c(OC)c(OC)c3o2)cc1; > 100 µM
COc1ccc(-c2cc(=O)c3c(O)c(OC)c(OC)c(OC)c3o2)cc1; > 100 µM

Read the next record carefully.
**Query** What value of AC50 has been reported for the following compound? COc1ccc(-c2cc(=O)c3c(OC)c(OC)c(OC)cc3o2)cc1OC
**Result** > 100 µM
